Every entry's value here was drawn from patent US20240158446A1.

- target_of_assay: GDP-bound KRAS wild-type protein (Homo sapiens)
- Sequence (P01116 whole entry): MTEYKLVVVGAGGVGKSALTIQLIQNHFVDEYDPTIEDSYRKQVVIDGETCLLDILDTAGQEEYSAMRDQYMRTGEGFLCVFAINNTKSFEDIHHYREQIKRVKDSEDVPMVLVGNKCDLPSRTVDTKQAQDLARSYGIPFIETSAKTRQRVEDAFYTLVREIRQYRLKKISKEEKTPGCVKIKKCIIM
- experiment_notes: Binding to KRAS by surface plasmon resonance (SPR), Single Cycle Kinetics
- test_context: SPR, Single Cycle Kinetics, GDP-bound KRAS wild-type protein; read-out: KRAS KD
observable: Kd (nM)

smiles_str	experimental_value
CCCOC[C@H]1C(=O)N[C@@H]([C@@H](C)CC)C(=O)N(C2CC2)CC(=O)N(C)[C@H]2C/C=C\CCN(C2=O)[C@@H](Cc2ccc(C)cc2)C(=O)N(C)CC(=O)N[C@@H](CCc2ccc(C(F)(F)F)c(OC)c2)C(=O)N2C[C@H](OCC)C[C@H]2C(=O)N(C)C2(CCC2)C(=O)N(C)[C@@H](C2CCCC2)C(=O)N(C)[C@H](C(=O)N(C)C)CC(=O)N1C	0.11
CCC[C@H]1C(=O)N[C@@H]([C@@H](C)CC)C(=O)N(C)CC(=O)N(C)[C@H]2C/C=C\CCN(C2=O)[C@@H](CC2CCC(F)(F)CC2)C(=O)N(C)CC(=O)N[C@@H](CCc2ccc(C(F)(F)F)c(OC)c2)C(=O)N2C[C@@H](C)C[C@H]2C(=O)N(C)C2(CCC2)C(=O)N(C)[C@@H](C2CCCC2)C(=O)N(C)[C@H](C(=O)N(C)C)CC(=O)N1C	0.28
CCO[C@@H]1C[C@H]2C(=O)NC3(CC(C)(C)C3)C(=O)N(C)[C@@H](C(CC)CC)C(=O)N(C)[C@H](C(=O)N3CCCC3)CC(=O)N(C)[C@@H](COC)C(=O)N[C@@H]([C@@H](C)CC)C(=O)N(C)CC(=O)N(C)[C@H]3C/C=C\CCN(C3=O)[C@@H](Cc3ccc(C)cc3)C(=O)N(C)CC(=O)N[C@@H](CCc3ccc(C(F)(F)F)c(Cl)c3)C(=O)N2C1	0.48

###

- target_of_assay: GDP-bound KRAS wild-type protein (Homo sapiens)
- experiment_notes: Binding to KRAS by surface plasmon resonance (SPR), Single Cycle Kinetics
- test_context: SPR, Single Cycle Kinetics, GDP-bound KRAS wild-type protein; read-out: KRAS KD
observable: log10 Kd (log10 of the value in pM)

compound	observable	experimental_value
CCC(CC)[C@H]1C(=O)N(C)[C@H](C(=O)N(C)C)CC(=O)N(C)[C@@H](COC)C(=O)N[C@@H]([C@@H](C)CC)C(=O)N(C2CC2)CC(=O)N(C)[C@H]2C/C=C\CCN(C2=O)[C@@H](Cc2ccc(C)cc2)C(=O)N(C)CC(=O)N[C@@H](CCc2ccc(Cl)c(Cl)c2)C(=O)N2C[C@H](OC(C)C)C[C@H]2C(=O)NC2(CC(C)(C)C2)C(=O)N1C (stereo in doubt)	log10 Kd	3.41
CCO[C@@H]1C[C@H]2C(=O)NC3(CCC3)C(=O)N(C)[C@@H](CC(F)F)C(=O)N(C)[C@H](C(=O)N3CCOCC3)CC(=O)N(C)[C@@H](CC(C)C)C(=O)N[C@@H]([C@@H](C)CC)C(=O)N(C)CC(=O)N(C)[C@H]3CCCCCN(C3=O)[C@@H](Cc3ccc(C(F)(F)F)cc3)C(=O)N(C)CC(=O)N[C@@H](CCc3cc(F)c(C(F)(F)F)c(F)c3)C(=O)N2C1	log10 Kd	3.76
CCOC[C@H]1C(=O)N[C@@H]([C@@H](C)CC)C(=O)N(C)CC(=O)N(C)[C@H]2C/C=C\CCN(C2=O)[C@@H](Cc2ccc(C(F)(F)F)cc2)C(=O)N(C)CC(=O)N[C@@H](CCc2cc(F)c(C(F)(F)F)c(F)c2)C(=O)N2C[C@H](OCC)C[C@H]2C(=O)NC2(CC(C)(C)C2)C(=O)N(C)[C@@H](C2CCCC2)C(=O)N(C)[C@H](C(=O)N(C)CC)CC(=O)N1C	log10 Kd	1.79
CCCO[C@@H]1C[C@H]2C(=O)NC3(CC(C)(C)C3)C(=O)N(C)[C@@H](C(CC)CC)C(=O)N(C)[C@H](C(=O)N(C)C)CC(=O)N(C)[C@H]3CCCCc4ccc(cc4)C[C@@H](C(=O)N(C)CC(=O)N[C@@H](CCc4ccc(C(F)(F)F)c(OC)c4)C(=O)N2C1)N1CC/C=C\C[C@@H](C1=O)N(C)C(=O)CN(C)C(=O)[C@H]([C@@H](C)CC)NC3=O	log10 Kd	2.18
CCO[C@@H]1C[C@H]2C(=O)NC3(CCC3)C(=O)N(C)[C@@H](C3CCCC3)C(=O)N(C)[C@H](C(=O)N(C)C)CC(=O)N(C)[C@@H](CC(C)C)C(=O)N[C@@H]([C@@H](C)CC)C(=O)N3CC[C@H]3C(=O)N(C)[C@H]3CC(C)=CCN(C3=O)[C@@H](Cc3ccc(C(F)(F)F)cc3)C(=O)N(C)CC(=O)N[C@@H](CCc3cc(F)c(C(F)(F)F)c(F)c3)C(=O)N2C1	log10 Kd	2.63
CCO[C@@H]1C[C@H]2C(=O)NC3(CCC3)C(=O)N(C)[C@@H](C(CC)CC)C(=O)N(C)[C@H](C(=O)N3CCCCC3)CC(=O)N(C)[C@H]3CCCCC/C=C/c4ccc(cc4)C[C@@H](C(=O)N(C)CC(=O)N[C@@H](CCc4ccc(Cl)c(Cl)c4)C(=O)N2C1)N1CC/C=C\C[C@@H](C1=O)N(C)C(=O)CN(C)C(=O)[C@H]([C@@H](C)CC)NC3=O	log10 Kd	2.88
